- testSystem: Bile acid receptor (Homo sapiens, UniProt Q96RI1)
- Sequence (Q96RI1 whole entry): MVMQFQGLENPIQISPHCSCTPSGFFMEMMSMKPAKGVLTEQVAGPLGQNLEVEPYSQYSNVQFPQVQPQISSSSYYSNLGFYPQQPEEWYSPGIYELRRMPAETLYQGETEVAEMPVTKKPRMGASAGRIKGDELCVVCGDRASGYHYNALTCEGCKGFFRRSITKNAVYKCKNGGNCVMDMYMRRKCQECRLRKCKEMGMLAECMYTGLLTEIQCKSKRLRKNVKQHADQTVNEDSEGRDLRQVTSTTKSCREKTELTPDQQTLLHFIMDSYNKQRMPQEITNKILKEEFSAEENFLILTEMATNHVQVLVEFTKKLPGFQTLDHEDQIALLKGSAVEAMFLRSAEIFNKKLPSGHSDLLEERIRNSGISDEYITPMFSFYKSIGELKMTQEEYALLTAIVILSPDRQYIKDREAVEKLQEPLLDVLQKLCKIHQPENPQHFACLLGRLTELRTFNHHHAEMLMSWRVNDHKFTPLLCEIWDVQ
- testDetails: Agonist activity at GST-tagged FXR LBD (187 to 472 residues) (unknown origin) assessed as FXR interaction with b-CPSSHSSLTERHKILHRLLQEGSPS-COOH by FRET assay
pEC50: −log10 of the molar value.
parameterMeasured: pEC50

# example entries with known answers
* O=C(O)c1cccc([C@H]2C[C@@H](c3ccc(OCc4c(-c5c(Cl)cccc5Cl)noc4C4CC4)cc3Cl)C2)c1 | 7.11
* O=C(O)c1cccc([C@H]2C[C@](O)(c3ccc(OCc4c(-c5c(Cl)cccc5Cl)noc4C4CC4)cc3Cl)C2)c1 | 7.54
* O=C(O)c1cccc(C2CC2c2ccc(OCc3c(-c4c(Cl)cccc4Cl)noc3C3CC3)cc2Cl)c1 (racemic) | 7.49

a = O=C(O)c1ccc([C@H]2C[C@](O)(c3ccc(OCc4c(-c5c(Cl)cccc5Cl)noc4C4CC4)cc3Cl)C2)cc1
b = O=C(O)CNC(=O)c1ccc(C2CC2c2ccc(OCc3c(-c4c(Cl)cccc4Cl)noc3C3CC3)cc2Cl)cc1 (racemic)
c = O=C(O)c1ccc(C2CC2c2ccc(OCc3c(-c4c(Cl)cccc4Cl)noc3C3CC3)cc2Cl)cn1 (configuration not stated)
d = O=C(O)c1cccc([C@H]2C[C@](OCCO)(c3ccc(OCc4c(-c5c(Cl)cccc5Cl)noc4C4CC4)cc3Cl)C2)c1
List the 4 entries from lowest pEC50 to highest pEC50 value. Respond with an ordered listing of the labels, as requested.
d, b, c, a

###

- testDetails: Permeability of the compound assessed as compound enrichment in membrane compartment measured after 16 hrs by PAMPA assay relative to control
- Type: ADME
parameterMeasured: fold change (FC)

• O=C(O)c1cccc([C@H]2C[C@H](c3ccc(OCc4c(-c5c(Cl)cccc5Cl)noc4C4CC4)cc3Cl)C2)c1 = 319

P = O=C(O)c1cccc([C@H]2C[C@](O)(c3ccc(OCc4c(-c5c(Cl)cccc5Cl)noc4C4CC4)cc3Cl)C2)c1
Q = O=C(O)c1cncc(N2CC(O)(c3ccc(OCc4c(-c5c(Cl)cccc5Cl)noc4C4CC4)cc3Cl)C2)c1
R = CC(C)n1nc(C(=O)O)cc1[C@H]1C[C@](O)(c2ccc(OCc3c(-c4c(Cl)cccc4Cl)noc3C3CC3)cc2Cl)C1
Given 3 molecules, produce a descending ranking by fold change (FC). Respond with an ordered listing of the labels, as requested.
P, R, Q
